molecular target: T1, human CD8α/β (human, UniProt P01732 22-182; P10966 22-170); experiment: SPR, antibody captured on Protein A chip, hCD8α/β as analyte, 1:1 fit
T1 construct: Soluble heterodimer used in SPR and in the Carterra binning (there printed only as CD8α/β); also called hCD8α/β
T1 sequence (P01732 22-182, chain 1 of 2): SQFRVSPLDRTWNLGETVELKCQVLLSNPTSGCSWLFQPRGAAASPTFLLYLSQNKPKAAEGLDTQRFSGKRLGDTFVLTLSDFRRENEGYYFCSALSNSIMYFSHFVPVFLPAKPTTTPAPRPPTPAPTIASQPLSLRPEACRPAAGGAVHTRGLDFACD
T1 sequence (P10966 22-170, chain 2 of 2): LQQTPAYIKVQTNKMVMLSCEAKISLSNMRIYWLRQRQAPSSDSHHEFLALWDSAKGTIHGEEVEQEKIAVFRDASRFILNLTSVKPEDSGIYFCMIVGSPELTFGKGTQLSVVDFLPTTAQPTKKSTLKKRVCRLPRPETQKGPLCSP
Could you please report measured Kd for the items listed next?
Numbers only, in nM.

[[record]]
binder = "humanized 02A01-VH3-VK3 (antibody, human IgG1, V domains shown, human IgG1 format; also called 02-VH3/VK3) VH: EVQLVQSGAEVKKPGATLKISCKASGYTFTDFTMHWVQQAPGKGLEWIGLVNPNNGGNIYAEKFQGRATLTVDTSTSTAYMELSSLRSEDTSVYYCGRVPLYTSHGMDYWGQGTLVTVSS VL: EIVLTQSPATLSLSPGERATISCRASESVDSYDINSMHWYQQKPGQAPRLLIYRASHLQSGIPARFSGSGSRTDFTLTISSLEPEDFATYYCQQSNEDPLTFGQGTKLEIK"
quantity_name = "Kd"
numeric_result = 22


API: the following record is the query input.
Ask | Give the reported Kd for this binder. humanized 02A01-VH6-VK3 (antibody, human IgG1, V domains shown, human IgG1 format; also called 02-VH6/VK3) VH: EVQLVQSGAEVKKPGATVKISCKASGYTFTDFTMHWVQQAPGKGLEWIGLVNPNNGGNIYAEKFQGRVTLTVDTSTSTAYMELSSLRSEDTAVYYCGRVPLYTSHGMDYWGQGTLVTVSS VL: EIVLTQSPATLSLSPGERATISCRASESVDSYDINSMHWYQQKPGQAPRLLIYRASHLQSGIPARFSGSGSRTDFTLTISSLEPEDFATYYCQQSNEDPLTFGQGTKLEIK
Reply | 19.6
